# assayComment: MRT (0 to infinity) in Sprague-Dawley rat at 20 mg/kg, po measured upto 72 hrs by (LC-MS)/MS analysis
# Assay type: ADME, organism-based
# testConditions: in vivo
readoutType: MRT inf (h)

| structure | u | recordedNumber |
| --- | --- | --- |
| COc1cc2ncnc(Nc3cccc(Cl)c3F)c2cc1OCCCCNCc1c(OC)cc(OCc2cccc(-c3ccccc3)c2C)cc1OC | h | 17.2 |

----------
# assayComment: Cmax in Sprague-Dawley rat at 4 mg/kg, iv measured upto 72 hrs by (LC-MS)/MS analysis
# Type: ADME, organism-based
# testConditions: in vivo

| structure | Cmax / ng/mL |
| --- | --- |
| COc1cc2ncnc(Nc3cccc(Cl)c3F)c2cc1OCCCCNCc1c(OC)cc(OCc2cccc(-c3ccccc3)c2C)cc1OC | 326 |

----------
# assayComment: Clearance in Sprague-Dawley rat at 20 mg/kg, po measured upto 72 hrs by (LC-MS)/MS analysis
# Assay type: ADME, organism-based
# testConditions: in vivo

| structure | CL/F (mL/min/kg) |
| --- | --- |
| COc1cc2ncnc(Nc3cccc(Cl)c3F)c2cc1OCCCCNCc1c(OC)cc(OCc2cccc(-c3ccccc3)c2C)cc1OC | 107 |

----------
# assayComment: AUC (0 to infinity) in Sprague-Dawley rat at 20 mg/kg, po measured upto 72 hrs by (LC-MS)/MS analysis
# Format: ADME, organism-based
# testConditions: in vivo
readoutType: AUC(0-inf) (ng·h/mL)

| structure | readoutType | recordedNumber |
| --- | --- | --- |
| COc1cc2ncnc(Nc3cccc(Cl)c3F)c2cc1OCCCCNCc1c(OC)cc(OCc2cccc(-c3ccccc3)c2C)cc1OC | AUC(0-inf) | 3240 |

----------
# assayComment: Oral bioavailability in Sprague-Dawley rat at 20 mg/kg measured upto 72 hrs by (LC-MS)/MS analysis
# Type: ADME, organism-based
# testConditions: in vivo
readoutType: bioavailability (%)

| structure | u | recordedNumber |
| --- | --- | --- |
| COc1cc2ncnc(Nc3cccc(Cl)c3F)c2cc1OCCCCNCc1c(OC)cc(OCc2cccc(-c3ccccc3)c2C)cc1OC | % | 22.2 |

----------
# assayComment: Half life in Sprague-Dawley rat at 4 mg/kg, iv measured upto 72 hrs by (LC-MS)/MS analysis
# Type: ADME, organism-based
# testConditions: in vivo
readoutType: half-life (h)

| structure | readoutType | recordedNumber |
| --- | --- | --- |
| COc1cc2ncnc(Nc3cccc(Cl)c3F)c2cc1OCCCCNCc1c(OC)cc(OCc2cccc(-c3ccccc3)c2C)cc1OC | half-life | 6.8 |

----------
# assayComment: Cmax in Sprague-Dawley rat at 20 mg/kg, po measured upto 72 hrs by (LC-MS)/MS analysis
# Assay type: ADME, organism-based
# testConditions: in vivo
readoutType: Cmax (µg/mL)

| structure | recordedNumber |
| --- | --- |
| COc1cc2ncnc(Nc3cccc(Cl)c3F)c2cc1OCCCCNCc1c(OC)cc(OCc2cccc(-c3ccccc3)c2C)cc1OC | 0.255 |

----------
# measuredTarget: Programmed cell death 1 ligand 1 (Mus musculus)
# Sequence (Q9EP73 whole entry): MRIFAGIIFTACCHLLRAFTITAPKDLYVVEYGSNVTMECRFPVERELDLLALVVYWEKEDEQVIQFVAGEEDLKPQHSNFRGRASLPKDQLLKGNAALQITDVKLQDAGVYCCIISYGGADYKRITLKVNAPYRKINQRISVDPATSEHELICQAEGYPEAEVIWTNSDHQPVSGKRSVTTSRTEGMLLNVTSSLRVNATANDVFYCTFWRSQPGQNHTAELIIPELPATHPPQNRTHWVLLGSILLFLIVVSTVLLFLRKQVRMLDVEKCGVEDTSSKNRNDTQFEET
# assayComment: Binding affinity to recombinant mouse His-tagged PD-L1 expressed in HEK293 cells by SPR analysis

| structure | Kd, nM |
| --- | --- |
| COc1cc2ncnc(Nc3cccc(Cl)c3F)c2cc1OCCCCNCc1c(OC)cc(OCc2cccc(-c3ccccc3)c2C)cc1OC | 520 |
